Origin of measurements: patent US20160187342

- Experimental system: T1, EN2 (Engrailed-2) (UniProt P19622 P19622:1-333)
- T1 sequence: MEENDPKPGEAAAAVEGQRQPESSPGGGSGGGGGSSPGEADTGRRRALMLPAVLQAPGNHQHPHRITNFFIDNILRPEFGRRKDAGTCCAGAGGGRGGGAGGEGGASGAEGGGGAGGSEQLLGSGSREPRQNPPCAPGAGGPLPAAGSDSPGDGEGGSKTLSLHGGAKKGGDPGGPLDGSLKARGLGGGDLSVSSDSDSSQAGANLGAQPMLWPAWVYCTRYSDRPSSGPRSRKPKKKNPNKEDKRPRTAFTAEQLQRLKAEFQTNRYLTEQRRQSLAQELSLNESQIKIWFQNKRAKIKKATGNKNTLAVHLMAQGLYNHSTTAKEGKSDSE
- Measurement protocol: FAM fluorescence of protein-bound aptamer
- Condition info: tags: (His)6-tag, pET28a, E. coli BL21(DE3); label: FAM; hairpin, loop 10 bases, stem 14 bp
Endpoint name: Kd (nM)
Express it in nM; write the number only.

Entry CGTGTAATTACCTCCAGACCAGGAGAGGTAATTACACG (structured_DNA) [hpDNA4] ; Kd = 88.8
